study.system: DRB1*1501 (Homo sapiens, UniProt P01903+P01911)
assay.name: biochemical
result.type: pIC50
Lab note: report pIC50 as minus log10 of the concentration in molar units, number only.

chemical.smiles: CC[C@H](C)[C@H](NC(=O)[C@H](CCCCN)NC(=O)[C@H](C)NC(=O)[C@H](CCCCN)NC(=O)CNC(=O)[C@H](Cc1c[nH]c2ccccc12)NC(=O)[C@@H](N)[C@@H](C)O)C(=O)N[C@H](C(=O)N[C@H](C(=O)N[C@@H](C)C(=O)N[C@@H](CCC(=O)O)C(=O)N[C@H](C(=O)N[C@@H](CCC(N)=O)C(=O)N[C@@H](CC(N)=O)C(=O)N[C@@H](CO)C(=O)O)[C@@H](C)O)[C@@H](C)O)C(C)C
pIC50: 5.43

--- query ---
So what does the record say about pIC50 for `CC[C@H](C)[C@H](NC(=O)[C@H](C)N)C(=O)N[C@@H](CCC(N)=O)C(=O)N[C@@H](CCC(N)=O)C(=O)N[C@H](C(=O)N[C@@H](CCCNC(=N)N)C(=O)N[C@@H](CO)C(=O)N[C@@H](CC(C)C)C(=O)N[C@H](C(=O)NCC(=O)N[C@@H](CC(N)=O)C(=O)N[C@@H](CCC(=O)O)C(=O)N[C@@H](CCC(=O)O)C(=O)N[C@@H](Cc1ccccc1)C(=O)N[C@@H](CC(C)C)C(=O)N[C@@H](CC(=O)O)C(=O)N[C@@H](Cc1ccc(O)cc1)C(=O)O)[C@@H](C)CC)C(C)C` ?
6.83
